# Tested on: southern armyworm (Spodoptera eridania, (Cram.))
# assay_remarks: Southern Armyworm Leaf Spray Bait Test
# Type: in vivo
# test_settings: Spodoptera eridania, 72 h; leaf spray bait; 3 days; read-out: Insect LD50, Armyworm
Response field label takes y when LC50 is strictly below 10 µg/mL and n in all other cases.

Query: Given the entry `CC(=NOC(=O)N(C)Sc1ccc(Cl)cc1)SC(C)C` , would its reported LC50 be below 10 µg/mL?
Response: n

Query: Same thing, different compound: `CSC(C)=NOC(=O)N(C)Sc1ccc(C)cc1`
Response: y

Query: // repeat for `CSC(C)=NOC(=O)N(C)Sc1ccc(C(C)(C)C)cc1` and report
Response: y

Query: Param item: `CNC(=O)ON=C(C)SC(C)C`
Response: n

Query: Thanks! And `CCSC(C)=NOC(=O)NC` ?
Response: n

Query: And `CCSC(C)=NOC(=O)N(C)Sc1ccc(C(C)(C)C)cc1` ?
Response: n

Query: Entry `CC(=NOC(=O)N(C)Sc1ccc(C(C)(C)C)cc1)SC(C)C` please
Response: n

Query: For `CNC(=O)ON=C(C)SC` then?
Response: n

Query: Also `CC(=NOC(=O)N(C)Sc1ccc(C)cc1)SC(C)C` ?
Response: n
